molecular target: MC4-R (HEK-293 cells) (Homo sapiens); construct: expressed in transfected cells; host or cells: HEK-293; assay: cAMP assay for agonist/antagonist status, MC4-R; type: cell-based
Sequence (P32245 whole entry): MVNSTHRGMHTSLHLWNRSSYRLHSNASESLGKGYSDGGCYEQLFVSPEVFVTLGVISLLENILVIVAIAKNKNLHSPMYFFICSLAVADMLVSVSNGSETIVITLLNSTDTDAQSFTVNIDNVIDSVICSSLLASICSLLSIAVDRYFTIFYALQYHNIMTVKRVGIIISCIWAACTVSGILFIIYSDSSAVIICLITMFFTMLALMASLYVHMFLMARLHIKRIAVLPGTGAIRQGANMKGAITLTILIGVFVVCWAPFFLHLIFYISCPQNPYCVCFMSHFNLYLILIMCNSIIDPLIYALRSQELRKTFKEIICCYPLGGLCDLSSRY
readout name: agonist/antagonist status as to MC4-R

Please review the entries below; each comes with its answer.
N=C(N)NCCC[C@H]1C(=O)N2C(CC[C@@H]2COc2ccc3ccccc3c2)N1C(=O)[C@@H](Cc1ccc(Cl)cc1Cl)NC(=O)[C@@H]1C[C@@H](OCc2ccccc2)CN1 (some centres unmarked) : antagonist
N=C(N)NCCC[C@H]1C(=O)N(CCc2ccc3ccccc3c2)CCN1C(=O)[C@H](N)Cc1ccc(Cl)cc1Cl : agonist
NCCCC[C@H]1C(=O)N(CCc2ccc3ccccc3c2)CCN1C(=O)[C@@H](Cc1ccc(Cl)cc1Cl)NC(=O)[C@@H]1Cc2ccccc2CN1 : agonist
N=C(N)NCCC[C@H]1C(=O)N(CCc2ccc3ccccc3c2)CCN1C(=O)[C@@H](Cc1ccc(Cl)cc1Cl)NC(=O)[C@@H](N)COCc1ccccc1 : agonist
NCCCC[C@H]1C(=O)N(CCc2ccc3ccccc3c2)CCN1C(=O)[C@@H](Cc1ccc(Cl)cc1Cl)NC(=O)[C@H]1CC[C@@H](c2ccccc2)N1 : agonist
N=C(N)NCCC[C@H]1C(=O)N2C(CC[C@@H]2COc2ccc3ccccc3c2)N1C(=O)[C@@H](Cc1ccccc1Cl)NC(=O)[C@@H]1C[C@@H](OCc2ccccc2)CN1 (some centres unmarked) : agonist
NCCCC[C@H]1C(=O)N(CCc2ccc3ccccc3c2)CCN1C(=O)[C@@H](Cc1ccc(Cl)cc1Cl)NCCOCc1ccccc1 : antagonist
NCCCC[C@H]1C(=O)N(CCc2ccc3ccccc3c2)CCN1C(=O)[C@@H](Cc1ccc(Cl)cc1Cl)NC(=O)c1ccc(Oc2ccccc2)cc1 : antagonist

Problem: Can you look up the measured agonist/antagonist status as to MC4-R of NCCCC[C@H]1C(=O)N(CCc2ccc3ccccc3c2)CCN1C(=O)[C@@H](Cc1ccc(Cl)cc1Cl)NCc1ccc(-c2ccccc2)cc1 for me?
Solution: antagonist

Problem: Query: agonist/antagonist status as to MC4-R; subject: N=C(N)NCCC[C@H]1C(=O)N2C(CC[C@@H]2COc2ccc3ccccc3c2)N1C(=O)[C@@H](Cc1ccc(Cl)cc1Cl)NC(=O)[C@@H](N)COCc1ccccc1 (some centres unmarked)
Solution: agonist

Problem: Endpoint output: agonist/antagonist status as to MC4-R of C[C@@H](OCc1ccccc1)[C@H](N)C(=O)N[C@H](Cc1ccc(Cl)cc1Cl)C(=O)N1CCN(CCc2ccc3ccccc3c2)C(=O)[C@@H]1CCCCN . Value?
Solution: agonist

###

biological target: MC3-R (Homo sapiens); assay: Competitive inhibition binding assay, 125I-NDP-α-MSH, MC3-R; design: expressed in transfected cells; conditions: 1 μM compound; inhibition of 125I-NDP-α-MSH binding; mean of triplicates; results less than 0% reported as 0%
Sequence (P41968 whole entry): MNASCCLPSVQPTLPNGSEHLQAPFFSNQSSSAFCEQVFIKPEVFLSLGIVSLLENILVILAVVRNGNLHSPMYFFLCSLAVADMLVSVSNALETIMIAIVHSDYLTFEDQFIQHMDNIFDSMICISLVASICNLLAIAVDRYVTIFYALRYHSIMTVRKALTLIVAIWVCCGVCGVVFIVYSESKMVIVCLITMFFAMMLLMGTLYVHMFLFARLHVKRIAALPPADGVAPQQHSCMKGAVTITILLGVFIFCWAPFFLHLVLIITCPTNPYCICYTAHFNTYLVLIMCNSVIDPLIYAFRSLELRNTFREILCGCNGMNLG
readout name: Inhibition at 1 μM MC3-R (%)

P = N=C(N)NCCC[C@H]1C(=O)N(CCc2c[nH]c3ccccc23)CCN1C(=O)[C@@H](Cc1ccccc1Cl)NC(=O)[C@@H](N)COCc1ccccc1
Q = NCCCNC(=O)[C@@H]1C[C@@H](OCc2ccccc2)CN1C(=O)[C@@H](Cc1ccccc1)NC(=O)[C@@H](N)Cc1ccc(-c2ccccc2)cc1
Problem: Smaller Inhibition at 1 μM MC3-R value, P vs Q ? // output: label of the selected item
Solution: Q
(Q: 0%, P: 40%)

I = NCCC[C@H]1CN(CCc2ccc3ccccc3c2)CCN1C(=O)[C@H](N)Cc1ccc(Cl)cc1Cl
II = NCCCNC(=O)[C@@H]1C[C@@H](OCc2ccccc2)CN1C(=O)[C@@H](Cc1ccccc1)NC(=O)C1CCC(CN)CC1 (stereo partly drawn)
III = NCCCC[C@H]1C(=O)N(CCc2ccc3ccccc3c2)CCN1C(=O)[C@@H](Cc1ccc(Cl)cc1Cl)NC(=O)[C@@H]1C[C@@H](OCc2ccccc2)CN1
Problem: Order the records, beginning with the lowest Inhibition at 1 μM MC3-R and ending with the highest. Use the labels to give the ranking in the order requested.
Solution: II, I, III
(II: 0%, I: 33%, III: 61%)
